Would you mind telling me the reported MT1-MMP Hemmung of each entry?
biological target: katalytische Domäne der MT1-MMP (Homo sapiens); construct: Die katalytische Domäne der humanen MT1-MMP wurde nach den Angaben in folgender Publikation kloniert; made in house; assay: Quantitative fluorescence assay for matrix metalloproteinases (cleavage of Mca-Pro-Leu-Gly-Leu-Dpa-Ala-Arg-NH2); format: biochemical; details: bei 10 µM
Numbers only, in % Hemmung bei 10 µM.

O=c1[nH]c2ccccc2c(=O)n1CC(S)CS (racemic) : 40
O=c1[nH]c2sc3c(c2c(=O)n1CC(S)CS)CCCC3 (racemic) : 42
O=c1[nH]c2ccc(Cl)cc2c(=O)n1CC(S)CS (racemic) : 60
Cc1cccc2[nH]c(=O)n(CC(S)CS)c(=O)c12 (racemic) : 80

Continue with the compound presented below.
### Prompt Which MT1-MMP Hemmung is reported for this compound? O=c1[nH]c2cc(Cl)ccc2c(=O)n1CC(S)CS (racemic)
### Response 73

###

molecular target: katalytische Domäne der MMP-8 (Homo sapiens, UniProt P22894); construct: dass wir statt des Gesamtenzyms nur dessen enzymatisch aktive katalytische Domäne in E. coli klonierten; made in house; host or cells: E. coli; experiment: Quantitative fluorescence assay for matrix metalloproteinases (cleavage of Mca-Pro-Leu-Gly-Leu-Dpa-Ala-Arg-NH2); format: biochemical; conditions: Dixon plot
Sequence (P22894 100-262 limits assumed): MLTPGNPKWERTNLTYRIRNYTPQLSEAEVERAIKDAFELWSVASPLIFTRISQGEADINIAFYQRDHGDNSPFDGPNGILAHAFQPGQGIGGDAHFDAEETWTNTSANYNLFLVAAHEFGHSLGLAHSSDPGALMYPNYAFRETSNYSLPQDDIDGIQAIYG
assay_endpoint: pKi
Answers are plain numbers, as −log10 of the molar value.

### Prompt I would be grateful if you could share the reported pKi for CC(S)(CS)Cn1c(=O)[nH]c2ccccc2c1=O (racemic) .
### Response 4.22
